# Method notes: Acute oral toxicity in rats
# Format: in vivo
# Condition summary: rat, in vivo, po, 2000 mg/kg, Percentage Mortality
Readout: mortality at 144 h (%)

INSERT INTO results (compound, readout, reported) VALUES
  ('CSCCC(NC(C)=O)C(=O)Oc1ccc(NC(C)=O)cc1 (racemic) [Compound A]', 'mortality at 144 h', 0);

* * *

# Method notes: Acute oral toxicity in rats
# Format: in vivo
# Condition summary: rat, in vivo, po, 8000 mg/kg, Percentage Mortality
Readout: mortality at 120 h

INSERT INTO measurements (compound, reported) VALUES
  ('CSCCC(NC(C)=O)C(=O)Oc1ccc(NC(C)=O)cc1 (racemic) [Compound A]', '0%'),
  ('CC(=O)Nc1ccc(O)cc1 [NAPA, N-acetyl-para-aminophenol]', '100%');
